Give Inhibition of binding (%) for every item shown.
Target: hCMV gH + gL + UL128 + UL130 + UL131A (co-expressed in HEK293T cells) (human cytomegalovirus), P12824
Assay: competitor: 10F7-biotin; cell staining
Details: remark: other sources report otherwise
One number for each entry, in %.

# annotated cases, reported Inhibition of binding (%) shown
# BINDER, DISPLAY UNIT, VAL
records = [
    ("2C12 (antibody, V domains shown) VH: QITLRESGPTLVKPTQTLTLTCTFSGFSLNTNGVGVGWIRQPPGKALEWLALIYWNGNEGYSPSLKSRLTITKDTSKNQVVLTMTNMDPVDTATYYCVHWPQGLTTVTRLAFDIWGQGTMVTVSS VL: QSALTQPRSVSGSPGQSVTISCTGTTSDVGRYNFVSWYQQHPGKAPKLLMYDVSQRPSGVPSRFSGSKSGNTASLTISGLQAEDEAVFYCCSYAGGNFFSYVFGTGTKVTVL", "%", 0),
    ("4I22 (antibody, V domains shown) VH: QVQLVESGGGVVQPGRSLRLSCVASGFTFSSYAMHWVRQAPGKGLEWVAVISYDGDNKFYADSVKGRFRISRDTSKNTLYLEMNSLRAADTAIYYCAREELVGLMPPYYNYGLDVWGQGTTVTVSS VL: QSVLTQPPSVSAAPGQKVTISCSGSNSNIGNNYVSWYQQLPGRAPKLLIYDNDHRPSGIPDRFSGSKSGTSATLVITGLQTGDEADYYCETWDTSLSAAVVFGGGTKLTVL", "%", 100),
]

Query binder follows.
Ask: Using known records, supply Inhibition of binding (%) for 4N10 (antibody, V domains shown) VH: QVQLVQSGAEVKKPGSSVRVSCKASGGTFSSYVIIWVRQAPGQGLEWMGGVIPIFDTVNYAQKFQGRVTITADESTSTAYMELSSLKSEDTAVYYCARGILAYCGGDCYNTPYGMDVWGQGTTVTVSS VL: DIQMTQSPSILSASVGDRVTITCRASQSISSWLAWYQQKPGKAPKLLIYKASSLEIGVPSRISGSGSGTEFTLTISSLQPDDFATYYCQQYNSSWTFGQGTKVEIK
Result: 0
